Test: in vivo
Settings: male, Sprague-Dawley, rat, po, 10 mg/kg
Recorded Metric: MRT inf (h)
Please state the figure in h; there is no need to write the unit.

Smiles Entry	MRT inf (h)
O=C(NCc1ccccn1)C(=O)[C@@H](Cc1ccccc1)NC(=O)[C@H]1COCCN1C(=O)C1CCC(F)(F)CC1	3.59
C[C@@H](NC(=O)C1CCC(F)(F)CC1)C(=O)N[C@H](Cc1ccccc1)C(=O)C(=O)NCc1nccs1	4.89
C[C@@H](NC(=O)N1CCC(F)(F)CC1)C(=O)N[C@H](Cc1ccccc1)C(=O)C(=O)NCc1ccccn1	4.43
C[C@@H](NC(=O)[C@@H]1C[C@@H]2[C@H](C1)C2(F)F)C(=O)N[C@H](Cc1ccccc1)C(=O)C(=O)NCc1ccccn1	4.02

// moving on: another record for MRT inf
INPUT: # MRT inf lookup, item C[C@@H](NC(=O)CC1CC(F)(F)C1)C(=O)N[C@H](Cc1ccccc1)C(=O)C(=O)NCc1nccs1
OUTPUT: 6.57

* * *

Below, each entry is listed alongside its reported MRT inf.
Assay: in vivo
Details: male, Sprague-Dawley, rat, iv, 1 mg/kg
Please state the figure in h; there is no need to write the unit.

These recorded examples may help you get a feel for the data.
Molecule	MRT inf (h)
COC[C@@H](NC(=O)CC1CC(F)(F)C1)C(=O)N[C@H](Cc1ccccc1)C(=O)C(=O)NCc1nccs1 [Compound 400]	3.18
C[C@@H](NC(=O)C1CCC(F)(F)C1)C(=O)N[C@H](Cc1ccccc1)C(=O)C(=O)NCc1nccs1 (stereo partly shown) [Compound 379]	1.26
COC[C@@H](NC(=O)C1CCCC(F)(F)C1)C(=O)N[C@H](Cc1ccccc1)C(=O)C(=O)NCc1nccs1 (stereo partly shown) [Compound 398]	2.34

// moving on: another record for MRT inf
INPUT: # MRT inf lookup, item O=C(CNC(=O)C1CCC(F)(F)CC1)N[C@H](Cc1ccccc1)C(=O)C(=O)NCc1ccccn1 [Compound 155]
OUTPUT: 3.99

* * *

Below, each entry is listed alongside its reported log10 IC50.
Target: recombinant SARS-CoV-2 M^pro (Severe acute respiratory syndrome coronavirus 2 (2019-nCoV) (SARS-CoV-2))
Test: Inhibition of SARS-CoV-2 M^pro enzyme activity (fluorescent substrate assay)
Format: biochemical
Conditions: inhibition of SARS-CoV-2 M^pro enzyme activity; values in nM; read-out: IC50
// stored as log10 of IC50 expressed in nM

These recorded examples may help you get a feel for the data.
Molecule	Endpoint Value
CS(=O)(=O)CC[C@@H](NC(=O)CC1CC(F)(F)C1)C(=O)N[C@H](Cc1ccccc1)C(=O)C(=O)NCc1nccs1	1.27
O=C(NCc1ccccn1)C(=O)[C@@H](Cc1ccccc1)NC(=O)C1(NC(=O)C23CC4CC(CC(O)(C4)C2)C3)CCC1	1.72
O=C(Cn1cc(-c2cc(F)c(F)cc2F)cn1)N[C@H](Cc1ccccc1)C(=O)C(=O)NCc1nccs1	2.02
C[C@@H](NC(=O)C1CC2CCC1C2)C(=O)N[C@H](Cc1ccccc1)C(=O)C(=O)NCc1nccs1 (stereo partly shown)	1.50
O=C(CN1C(=O)CN(c2cccc(Cl)c2)C1=O)N[C@H](Cc1ccccc1)C(=O)C(=O)NCc1nccs1	1.65
CC(C)(C(=O)N[C@H](Cc1ccccc1)C(=O)C(=O)NCc1ccccn1)n1cc(-c2ccc(F)cc2)cn1	2.29

// moving on: another record for log10 IC50
INPUT: # log10 IC50 lookup, item O=C(NCc1ccccn1)C(=O)[C@@H](Cc1ccccc1)NC(=O)C1(NC(=O)[C@H]2CC[C@H](c3ccc(Cl)cc3)CC2)CCC1
OUTPUT: 2.81

Recorded values, source patent US20250064789A1.
